Origin of values: patent US20250257130A1

study system: T1, human ROR1 on cells (HEK293T-hROR1, PANC-1, A549) (human, UniProt Q01973 30-937)
T1 construct: whole, on cells; one molecule for the three cell lines; also called huROR1; cell surface ROR1
T1 sequence (Q01973 30-937): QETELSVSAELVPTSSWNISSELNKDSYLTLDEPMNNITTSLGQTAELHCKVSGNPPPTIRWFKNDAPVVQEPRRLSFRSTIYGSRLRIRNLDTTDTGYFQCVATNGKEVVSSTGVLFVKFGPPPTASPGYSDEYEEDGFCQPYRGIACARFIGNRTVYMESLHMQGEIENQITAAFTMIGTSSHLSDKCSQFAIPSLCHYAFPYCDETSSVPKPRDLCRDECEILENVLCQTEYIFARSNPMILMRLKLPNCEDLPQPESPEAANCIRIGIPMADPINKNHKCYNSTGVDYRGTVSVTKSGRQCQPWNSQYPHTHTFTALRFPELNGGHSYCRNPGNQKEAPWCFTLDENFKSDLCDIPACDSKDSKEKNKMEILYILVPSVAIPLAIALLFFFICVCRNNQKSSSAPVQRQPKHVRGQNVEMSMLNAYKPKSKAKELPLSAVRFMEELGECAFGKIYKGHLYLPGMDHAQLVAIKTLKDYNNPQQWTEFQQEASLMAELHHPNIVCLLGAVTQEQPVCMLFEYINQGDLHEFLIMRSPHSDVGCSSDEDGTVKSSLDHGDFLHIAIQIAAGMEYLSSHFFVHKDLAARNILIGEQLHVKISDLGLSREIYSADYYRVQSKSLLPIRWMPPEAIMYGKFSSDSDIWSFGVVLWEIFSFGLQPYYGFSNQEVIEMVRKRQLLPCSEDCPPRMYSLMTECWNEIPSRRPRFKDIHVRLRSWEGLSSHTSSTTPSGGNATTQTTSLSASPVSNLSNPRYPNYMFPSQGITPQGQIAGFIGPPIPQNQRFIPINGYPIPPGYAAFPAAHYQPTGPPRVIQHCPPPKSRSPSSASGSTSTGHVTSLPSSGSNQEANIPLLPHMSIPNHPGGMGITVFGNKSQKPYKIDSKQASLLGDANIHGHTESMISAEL
test description: flow cytometry, PANC-1 cells
quantity measured: Max
// no unit, no text: just the number

Worked examples follow.
PR005340 (antibody, human IgG1, V domains shown, HCAb (heavy chain-only, human IgG1 Fc), no light chain) VH: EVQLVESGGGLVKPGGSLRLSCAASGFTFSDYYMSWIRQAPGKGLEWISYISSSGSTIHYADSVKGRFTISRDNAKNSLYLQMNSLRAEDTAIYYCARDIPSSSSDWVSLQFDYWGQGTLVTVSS; 17500
PR005350 (antibody, human IgG1, V domains shown, HCAb (heavy chain-only, human IgG1 Fc), no light chain) VH: EVQLVESGGGLVKPGGSLRLSCAASGFTLSDSQMSWIRQAPGKGVEWVSYISSSGNTIYYGDSVKGRFTISRDNAKNSLFLQMNSLRAEDTAVYYCARVPPSSSNWYEDFDIWGQGTLVTVSS; 4250
PR005345 (antibody, human IgG1, V domains shown, HCAb (heavy chain-only, human IgG1 Fc), no light chain) VH: EVQLVESGGGLVKPGGSLRLSCAASGFTFSDYYMSWIRQAPGKGLEWIAYISSSGSTIHYSDSVKGRFTISRDNAKNSLYLQMNSLRAEDTAVYYCARDTPSSSSDWVSLQFDYWGQGTPVTVSS; 9710

Here is the next item to consider.
Measured Max of PR005352 (antibody, human IgG1, V domains shown, HCAb (heavy chain-only, human IgG1 Fc), no light chain) VH: EVQLVESGGGLVKPGGSLRLSCAASGFTFSDYYMSWIRQAPGKGLEWISYISSSGGSIYYADSVKGRFTISRDNAKNSLYLQMNRLRAEDTALYYCARTPPSSNNWYEDFDYWGQGALVTVSS : 23300
